System: mfPRLR.mmh (monomeric macaca fascicularis PRLR)
Sequence (as listed by the source): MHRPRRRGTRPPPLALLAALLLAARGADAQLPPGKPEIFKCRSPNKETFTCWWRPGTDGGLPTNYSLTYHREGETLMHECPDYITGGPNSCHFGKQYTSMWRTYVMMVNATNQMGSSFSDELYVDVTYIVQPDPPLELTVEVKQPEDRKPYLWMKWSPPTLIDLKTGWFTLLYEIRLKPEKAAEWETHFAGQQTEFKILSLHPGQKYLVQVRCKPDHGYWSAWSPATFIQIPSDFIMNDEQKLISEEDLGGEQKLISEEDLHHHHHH
Test: Surface plasmon resonance (Biacore T200), mAb-capture format
Format: binding
Conditions: 25° C., antibody-capture format, analyte mfPRLR.mmh

# molecule, T½
records = [
    ("H1H6803P: anti-PRLR antibody, human IgG1 Fc; HCVR/LCVR SEQ ID NOs 226/234 (antibody, V domains shown, human IgG1 Fc) VH: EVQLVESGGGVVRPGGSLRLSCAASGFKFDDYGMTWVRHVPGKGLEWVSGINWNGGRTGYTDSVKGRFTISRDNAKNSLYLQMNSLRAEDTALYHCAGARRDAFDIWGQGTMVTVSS VL: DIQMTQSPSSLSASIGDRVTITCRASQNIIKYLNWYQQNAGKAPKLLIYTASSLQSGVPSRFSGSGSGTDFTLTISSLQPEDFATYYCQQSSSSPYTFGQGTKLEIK", "55 min"),
]

Each recorded value in this set is attributed to patent US9688764B2.
